Reported GI50 values are given for each entry in this list.
Tested on: NCI-H226
Assay: NCI tumour cell line growth inhibition, 48 h
Active and inactive are the calls of the source. No stated cut-off is given here; in the data, active = GI50 up to about 1.1 µM and inactive = higher.
QUANTITY_MEASURED: GI50

>>> test_result("COc1ccc(OC)c(NC(=O)C(=O)CC(=O)c2sc(-n3nc(-c4ccccc4)cc3-c3ccccc3)nc2C)c1")
"> 100 µM (inactive)"
>>> test_result("C/C=C/C=C/C1=NN(c2cccc(S(=O)(=O)O)c2)C2(C1)SCC(=O)N2c1nc2ccccc2s1 (stereo unspecified)")
"30.8 µM (inactive)"
>>> test_result("CN(C)c1ccc(N=O)c(O)c1.CN(C)c1ccc(N=O)c(O)c1.[SiH4]")
"16.4 µM (inactive)"
>>> test_result("CC1(C)OB(O)OC1(C)C")
"> 100 µM (inactive)"
>>> test_result("Cc1c2[nH]c3ccc(Br)cc3c2c(C)c2nccc(O)c12")
"16.6 µM (inactive)"
>>> test_result("CC(O)c1ccc(C(O)/C(=N\\NC(=O)c2ccncc2)c2nc3ccc([N+](=O)[O-])cc3nc2O)cc1 (stereo unspecified)")
"> 100 µM (inactive)"

====

Test system: DLD-1
Experiment: NCI tumour cell line growth inhibition, 48 h
Calls of active or inactive are those of the source. No stated cut-off is given here; in the data, active = GI50 up to about 1.1 µM and inactive = higher.
QUANTITY_MEASURED: GI50

>>> test_result("COc1cc2c(c(OC)c1OC)-c1[nH]ncc1CC2")
"> 100 µM (inactive)"
>>> test_result("C#CCOCn1cnc2c(Cl)ncnc21")
"> 100 µM (inactive)"
>>> test_result("COc1ccc(C(=O)O/N=C2/CCC/C2=C\\c2ccccc2)cc1")
"> 100 µM (inactive)"
>>> test_result("CCOc1ccc(C2=NN(CC)C(=O)C(C3C(=O)N(c4ccccc4)N=C3C)C2)cc1 (stereo not given)")
"> 100 µM (inactive)"
>>> test_result("CCCCCCCCCCCC(=O)OCCOCCOCCOCCOCCOCc1ccc(OC)cc1")
"> 100 µM (inactive)"
>>> test_result("O=C(CCC(=O)Nc1ccc(Cl)c(Cl)c1)CC(=O)c1ccc(Br)cc1")
"> 100 µM (inactive)"
>>> test_result("N#CC(/C(=N\\NC(=O)c1ccncc1)C(=O)Nc1ccc([N+](=O)[O-])cc1[N+](=O)[O-])c1nc(-c2ccc(Br)cc2)cs1 (stereo not given)")
"> 100 µM (inactive)"
>>> test_result("CN(c1ccccc1)c1c(-c2ccccc2)c(=O)oc2c1ccc1occc12")
"> 100 µM (inactive)"
>>> test_result("CC1(C)C(=O)/C=C\\C(=O)C(C)(C)C2=CC=C(O2)C(C)(C)C(=O)C(Br)C(Br)C(=O)C(C)(C)C2=CC=C1O2 (stereo not given)")
"13.6 µM (inactive)"
>>> test_result("CC(=O)O[C@H]1CCC2[C@@H]3CCC4C(=O)c5oncc5C[C@]4(C)C3CC[C@@]21C (stereo not given in full)")
"> 100 µM (inactive)"
>>> test_result("CCOc1ccc2[nH]c3c(C)c4ccncc4c(C)c3c2c1")
"0.561 µM (active)"
>>> test_result("COc1cc2c(cc1Oc1c(Oc3c(O)c(OC)cc4c3C(CC(C)C)N(C)CC4)c(OC)cc3c1C(CC(C)C)N(C)CC3)C(CC(C)C)N(C)CC2 (stereo not given)")
"1.76 µM (inactive)"
>>> test_result("CCC1CN2CCc3cc(OC)c(OC)cc3C2CC1CC1c2cc(OC)c(OC)cc2CCN1C(=O)C1CCCN1C(=O)OCc1ccccc1 (stereo not given)")
"15.6 µM (inactive)"
>>> test_result("O=C(Cc1nc2ccccc2o1)C(=O)Nc1ccc(Cl)cc1Cl")
"> 100 µM (inactive)"
>>> test_result("CCc1cccc(C)c1N1C(=O)C(=O)C(c2nc3ccccc3o2)/C(=N/NC(=S)NN)C1=O (stereo not given)")
"> 100 µM (inactive)"
>>> test_result("CCSC(SCC)c1cc2c(cc1Br)OCO2")
"41 µM (inactive)"
>>> test_result("C/C(CC(=O)NCCc1ccccc1)=N\\NS(=O)(=O)c1ccc(C)cc1")
"> 100 µM (inactive)"
>>> test_result("COC1(OC)CC2C(=O)N(Cc3ccccc3)C1C=C2S(=O)(=O)c1ccccc1 (stereo not given)")
"12.7 µM (inactive)"
>>> test_result("O=C(CCc1n[nH]c(=S)o1)Nc1cc(Cl)ccc1Cl")
"79.3 µM (inactive)"
>>> test_result("CC(=O)NC(CCCCNC(=O)OCc1ccccc1)C(=O)NCc1ccccc1 (stereo not given)")
"> 100 µM (inactive)"

====

Test system: OVCAR-8
Test: NCI tumour cell line growth inhibition, 48 h
Active and inactive are the calls of the source. Cut-off read from the data, not from the text of the source: active = GI50 up to about 1.1 µM and inactive = higher.
Quick reference for GI50 among some compounds
QUANTITY_MEASURED: GI50

>>> test_result("CC1=NN(c2nc(N)nc(-c3sccc3N)n2)C(C)(C)C1")
"62.5 µM (inactive)"
>>> test_result("O=C(O)/C(Cl)=C(\\Cl)C(=O)NC1C2CC3CC(C2)CC1C3 (configuration not stated)")
"> 100 µM (inactive)"
>>> test_result("C=CCNC(=O)ON1C(=O)CCC1=O")
"> 100 µM (inactive)"
>>> test_result("Nc1nnnn1CCO")
"> 100 µM (inactive)"
>>> test_result("CCOc1nnnc2[nH]cnc12")
"> 100 µM (inactive)"
>>> test_result("N#CC1=C(N)Nc2nc3ccccc3n2C1c1ccccc1 (configuration not stated)")
"55.1 µM (inactive)"
>>> test_result("CCOC(=O)CN1C(=O)c2cc([N+](=O)[O-])cc3cc([N+](=O)[O-])cc(c23)C1=O")
"27.9 µM (inactive)"
>>> test_result("CCS(=O)(=O)CCn1cnc2c1c(=O)n(C)c(=O)n2C")
"> 100 µM (inactive)"
>>> test_result("CCOC(=O)/C(=C\\c1ccc(O)c(OC)c1)C(=O)c1ccccc1")
"11.7 µM (inactive)"
>>> test_result("COc1ccc2c(c1O)[C@@]13CCCC=C1[C@@H](C2)N(C)CC3")
"> 100 µM (inactive)"
>>> test_result("Cc1cc2nc3c(C)c4ccccc4c(C)n3c2cc1C")
"1.73 µM (inactive)"
>>> test_result("Cc1nc2c(n1CCCl)C(=O)c1ccccc1C2=O")
"17.9 µM (inactive)"

====

System: DU-145
Experiment: NCI tumour cell line growth inhibition, 48 h
The source made the active and inactive calls. Cut-off read from the data, not from the text of the source: active = GI50 up to about 1.1 µM and inactive = higher.
Possible outcomes: true for active, false for inactive

>>> discrete_label("Cc1c2oc3c(C)cc(F)c(C(=O)NC4C(=O)NC(C(C)C)C(=O)N5CCCC5C(=O)N(C)CC(=O)N(C)C(C(C)C)C(=O)OC4C)c3nc-2c(C(=O)NC2C(=O)NC(C(C)C)C(=O)N3CCCC3C(=O)N(C)CC(=O)N(C)C(C(C)C)C(=O)OC2C)c(N)c1=O (centres undefined)")
"true"
>>> discrete_label("Nc1nnnn1CCO")
"false"
>>> discrete_label("Nc1cccc(OCC2CCCN3CCCCC23)c1 (centres undefined)")
"false"
>>> discrete_label("COC(=O)C1C/C(=C/N(C)C)C(=S)N1 (centres undefined)")
"false"
>>> discrete_label("CNC(=O)C(C)NC(=O)C(Cc1ccccc1)NC(=O)OC(C)(C)C (centres undefined)")
"false"
>>> discrete_label("Cc1ccnc2c1c(=O)c1ccccc1n2C")
"false"
>>> discrete_label("COc1ccc2c(c1)CC[C@@H]1[C@@H]2CC[C@]2(C)C(=O)/C(=C/c3ccncc3)C[C@@H]12")
"false"
>>> discrete_label("O=c1[nH]c(=O)n(C/C=C/CO)nc1Br")
"false"
>>> discrete_label("CCOC(=O)/C(=C/Nc1c(C)n(C)n(-c2ccccc2)c1=O)C(C)=O")
"false"
>>> discrete_label("Oc1c(Cl)ccc2cccnc12")
"false"
>>> discrete_label("COc1ccc(NC(=O)/C(O)=C/C(=O)c2ccccc2)cc1")
"false"
>>> discrete_label("C=C1C(=O)OC2/C=C(\\C)CC/C=C(/C)CC(OC(=O)/C(=C/CO)CO)C12 (centres undefined)")
"false"
>>> discrete_label("Cc1ccc2c(c1)C(=O)c1ccc(C)nc1C2=O")
"false"
>>> discrete_label("CC1(C)CC(=O)C2=C(C1)NC1=C(C(=O)CC(C)(C)C1)C2c1ccc([N+](=O)[O-])cc1")
"false"
>>> discrete_label("CC[N+](C)(CC)CCC(O)(c1ccccc1)c1ccccc1")
"false"
>>> discrete_label("CC[C@H](C)C1=C(OC(C)=O)[N@+]2([O-])Oc3ccc(-c4c(OC(C)=O)c(OC(C)=O)c(-c5ccc(OC(C)=O)cc5)c(OC(C)=O)c4OC(C)=O)cc3O[C@]2([C@@H](C)CC)C(=O)N1OC(C)=O")
"false"
>>> discrete_label("Cc1cc(NS(=O)(=O)c2ccc(Nc3c4ccccc4nc4c(C(=O)NC(CO)(CO)CO)cccc34)cc2)no1")
"false"
>>> discrete_label("CC1(C)C(=O)/C=C\\C(=O)C(C)(C)C2=CC=C(O2)C(C)(C)C(=O)C(Br)C(Br)C(=O)C(C)(C)C2=CC=C1O2 (centres undefined)")
"false"
>>> discrete_label("O=S1(=O)c2ccccc2N(c2ccccc2)c2nnnn21")
"false"
